Test system: OVCAR-4
Experiment: NCI tumour cell line growth inhibition, 48 h
Active and inactive are the calls of the source. Cut-off read from the data, not from the text of the source: active = GI50 up to about 1.1 µM and inactive = higher.
Outcome codes: label 1 = active, label 0 = inactive

{"molecule": "CN1CCN([C@H]2C[C@H]3[C@@H]4CC=C5C[C@@H](O)CC[C@]5(C)[C@H]4CC[C@]3(C)C2=O)CC1", "group": "label 0"}
{"molecule": "CN1C(=O)c2ccccc2OC12C=Cc1ccc(O)cc1O2 (centres undefined)", "group": "label 0"}
{"molecule": "CCNc1cc2c(cc1O)CC[C@@H]1[C@@H]2CC[C@]2(C)[C@@H](O)CC[C@@H]12", "group": "label 0"}
{"molecule": "CCO[C@H]1O[C@@H]2OC3(C)CCC4[C@H](C)CCC([C@H]1C)[C@]42OO3 (some centres undefined)", "group": "label 0"}
{"molecule": "O/N=N/c1ccccn1.OCC1OC2OC3C(CO)OC(OC4C(CO)OC(OC5C(CO)OC(OC6C(CO)OC(OC7C(CO)OC(OC1C(O)C2O)C(O)C7O)C(O)C6O)C(O)C5O)C(O)C4O)C(O)C3O (centres undefined)", "group": "label 0"}
{"molecule": "Cc1c(C(=O)/C=C/C=C/c2ccccc2)[n+]([O-])c2ccccc2[n+]1[O-]", "group": "label 0"}
{"molecule": "CC(C)(C)n1c(=O)[nH]n(C2NN=Cc3cccc4cccc2c34)c1=O (centres undefined)", "group": "label 0"}
{"molecule": "COc1cccc2c1C(=O)c1c(O)c3c(c(O)c1C2=O)C[C@@](O)(C(C)=O)C[C@@H]3OC1OC(C)C(O)C(N)C1Br (some centres undefined)", "group": "label 1"}
{"molecule": "CCCCCCCCCCCC(=O)N(CCCCCCCCCCC(=O)O)CC(O)C(O)C(OC1OC(CO)C(O)C(O)C1O)C(O)CO (centres undefined)", "group": "label 0"}
{"molecule": "CCOC(=O)C1=C(C)N(Cc2ccc(Cl)cc2Cl)C2(O)C=CC(=O)C3C(=O)N(c4ccccc4)C(=O)C132 (centres undefined)", "group": "label 0"}
{"molecule": "CC1(C)OP(=O)(O)C=C1Sc1ccc([N+](=O)[O-])cc1[N+](=O)[O-]", "group": "label 0"}
{"molecule": "O=C1OC(c2ccccc2)=N/C1=C/NC(Cc1c[nH]cn1)C(=O)O (centres undefined)", "group": "label 0"}
{"molecule": "CC(C)CC1CC2C(=O)N(c3ccccc3)C(=O)C2c2[nH]c3ccccc3c21 (centres undefined)", "group": "label 0"}
{"molecule": "COc1ccc(NC(=O)/C(CC2=Nc3ccc([N+](=O)[O-])cc3NC2O)=N\\NC(=O)C[N+](C)(C)C)c(OC)c1 (centres undefined)", "group": "label 0"}
{"molecule": "N#Cc1ncc(C(Cl)Cl)nc1Cl", "group": "label 0"}
{"molecule": "NC(=O)C(C(N)=O)=C(O)/C(O)=C/C(=O)c1ccccc1", "group": "label 0"}
{"molecule": "O=C(O)C1CCCN1Cc1ccc2c(c1)OCO2 (centres undefined)", "group": "label 0"}
{"molecule": "COc1cc2cc(C(=O)N3CC(CCl)c4ccc(NCCN)cc43)[nH]c2c(OC)c1OC (centres undefined)", "group": "label 1"}
{"molecule": "Cc1cc(-c2ccccc2)nc(Nc2cc3ccccc3[nH]2)n1", "group": "label 0"}

* * *

Test system: TK-10
Assay: NCI tumour cell line growth inhibition, 48 h
Active and inactive are the calls of the source. No stated cut-off is given here; in the data, active = GI50 up to about 1.1 µM and inactive = higher.

{"compound": "CN1CCc2c1nc(-c1ccc(Cl)cc1)c1c2N(C)CC1", "GI50": "29.2 µM (inactive)"}
{"compound": "COC(=O)[C@]12CC[C@H]3CN(C(=O)OCc4ccccc4)[C@H]([C@H]31)[C@H](C(=O)OCC[Si](C)(C)C)N2S(=O)(=O)c1ccc(C)cc1", "GI50": "> 100 µM (inactive)"}
{"compound": "COC(=O)[C@H](Cc1ccccc1)NC(=O)[C@H](Cc1ccccc1)NC(=O)[C@@H]1CCCN1C(=O)N[C@H]1C2C=CC(C2)C1C(=O)N1CCC[C@H]1C(=O)N[C@@H](C)C(=O)N[C@H](C(=O)OC)C(C)C (some centres undefined)", "GI50": "65.5 µM (inactive)"}
{"compound": "COc1cccc(NC(=O)CC(=O)NNCC(=O)Nc2nnc(-c3ccc(N(CCC#N)S(=O)(=O)c4ccccc4)cc3)s2)c1", "GI50": "> 100 µM (inactive)"}
{"compound": "C=C1C(=O)OC2C[C@H](C)C3CC(=O)C(C)=C3CC12 (some centres undefined)", "GI50": "15.8 µM (inactive)"}
{"compound": "CCCOC(=O)C1C2CCC(O2)C1C(=O)O (centres undefined)", "GI50": "> 100 µM (inactive)"}
{"compound": "COc1ccc2nc(-c3ccc(OC(=O)N(C)C)cc3)cn2c1", "GI50": "> 100 µM (inactive)"}
{"compound": "FC(F)(F)c1nc2cc(SSc3cc4nc(C(F)(F)F)[nH]c4cc3Cl)c(Cl)cc2[nH]1", "GI50": "> 100 µM (inactive)"}
{"compound": "OCc1cn(Cc2ccccc2)c2ccccc12", "GI50": "< 0.0359 µM (active)"}

* * *

Test system: K562
Experiment: NCI tumour cell line growth inhibition, 48 h
Active and inactive are the calls of the source. No stated cut-off is given here; in the data, active = GI50 up to about 1.1 µM and inactive = higher.

{"compound": "N#Cc1c(-c2ccc(F)cc2)c(-c2ccc(F)cc2)nn(CCO)c1=O", "target-under-test": "K562", "GI50": "0.103 µM (active)"}
{"compound": "OC(c1ccccc1)(c1ccccc1)c1ccccn1", "target-under-test": "K562", "GI50": "> 100 µM (inactive)"}
{"compound": "NNC(=O)c1c(-c2cccnc2)cnc2ccccc12", "target-under-test": "K562", "GI50": "> 100 µM (inactive)"}
{"compound": "CCCCCCCCCCCC(=O)N(CCCCCCCCCCC(=O)O)CC(O)C(O)C(OC1OC(CO)C(O)C(O)C1O)C(O)CO (configuration not stated)", "target-under-test": "K562", "GI50": "95.1 µM (inactive)"}
{"compound": "CN(C)CCNC(=O)c1cccc2nc3c(nc12)-c1ccccc1C3=O", "target-under-test": "K562", "GI50": "3.16 µM (inactive)"}
{"compound": "CCOC(=O)N(CC)c1c(C(F)(F)F)cc(-c2ccccc2)[nH]c1=O", "target-under-test": "K562", "GI50": "23.1 µM (inactive)"}
{"compound": "CCCCCC/C=C1\\CCC(CN2CCOCC2)C1=O (configuration not stated)", "target-under-test": "K562", "GI50": "3.07 µM (inactive)"}
{"compound": "OCC12C3C4C1C1C2C3C41CO (configuration not stated)", "target-under-test": "K562", "GI50": "> 100 µM (inactive)"}
{"compound": "CC(=O)Nc1ccc2cc(C)c(O)nc2n1", "target-under-test": "K562", "GI50": "> 100 µM (inactive)"}
{"compound": "O=C(CN1CCOCC1)c1ccc2c(c1)oc(=O)n2CCN1CCOCC1", "target-under-test": "K562", "GI50": "> 100 µM (inactive)"}
{"compound": "O=C1CS(=O)(=O)C(c2cccc(Oc3ccccc3)c2)N1c1ccc(Cl)cc1 (configuration not stated)", "target-under-test": "K562", "GI50": "14.5 µM (inactive)"}
{"compound": "Cc1c(C(=O)/C=C/C=C/c2ccccc2)[n+]([O-])c2ccccc2[n+]1[O-]", "target-under-test": "K562", "GI50": "31.8 µM (inactive)"}

* * *

Tested on: OVCAR-8
Assay: NCI tumour cell line growth inhibition, 48 h
Activity calls are given as the source filed them. No stated cut-off is given here; in the data, active = GI50 up to about 1.1 µM and inactive = higher.

{"compound": "CC1=C(C)Cc2c(O)ccc(O)c2C1", "GI50": "16.1 µM (inactive)"}
{"compound": "CCN(CC)C(=O)N1CN(c2ccccc2)C2(CCN(CCCC3(c4ccc(F)cc4)OCCO3)CC2)C1=O", "GI50": "19.8 µM (inactive)"}
{"compound": "Cc1cc2c(cc1C)N1C(Cl)=C3CCCCC3=C(C#N)C1N2 (stereo not given)", "GI50": "11.5 µM (inactive)"}
{"compound": "CCN(CC)c1ncnc2c1ncn2CCNC(CO)(CO)CO", "GI50": "> 100 µM (inactive)"}
{"compound": "O=C(CCc1cc(-c2ccco2)n(-c2ccc([N+](=O)[O-])cc2[N+](=O)[O-])n1)Nc1ccccc1", "GI50": "> 100 µM (inactive)"}
{"compound": "O=C1Nc2ccc(Br)cc2/C1=N/S(=O)(=O)O", "GI50": "24.4 µM (inactive)"}
{"compound": "Cc1cc(=O)n(-c2cc3cccccc-3n2)[nH]1", "GI50": "5.53 µM (inactive)"}
{"compound": "Cc1cn([C@H]2C[C@@H]3[C@@H](COC(CCl)N3O)O2)c(=O)[nH]c1=O (stereo not given in full)", "GI50": "> 100 µM (inactive)"}
{"compound": "CCCC(=O)OC[n+]1ccc(-c2c(COC(=O)NC(C)C)c(COC(=O)NC(C)C)c3n2CCC3)cc1", "GI50": "> 100 µM (inactive)"}
{"compound": "COC(=O)[C@@]1(C(C)CC(=O)O)CCCCC1=O (stereo not given in full)", "GI50": "> 100 µM (inactive)"}

Origin of values: ChEMBL document CHEMBL1201862
